# System: full length IL-2 (amino acids 1-153) fused to Gaussia Luciferase
# protocolNotes: Dox Induced IL2-FL-Gluc Assay
# Assay type: cell-based
# condition: 24 hr, Dox inducible, 293FRT/TO cells; read-out: 24 hr Dox Inducible IL2FLGluc 293FRT/TO: Mean IC50
measuredAttribute: IC50

Solved cases below.
C[C@H]1CN(S(=O)(=O)c2ccc(N(C)C)cc2)CCCN(CC2CCCCC2)CCCN(S(=O)(=O)N2CCNCC2)C1: 3480 nM
COc1cc(F)cc(N2[C@H](C)CN(S(=O)(=O)N3CCCN(CC4CCCCC4)CCCN(S(=O)(=O)c4ccc(N(C)C)cc4)C[C@H](C)C3)C[C@H]2C)c1: 27.9 nM
C[C@H]1CN(S(=O)(=O)c2ccc(N(C)C)cc2)CCCN(CCC2CCCC2)CCCN(S(=O)(=O)N2CCc3cc(Cl)ccc3C2)C1: 27.3 nM
C[C@H]1CN(S(=O)(=O)c2ccc(N(C)C)cc2)CCCN(CC2CCCCC2)CCCN(S(=O)(=O)N2CCN(c3ccccc3OC(F)(F)F)CC2)C1: 248 nM
COc1cc(F)ccc1N1CCN(S(=O)(=O)N2CCCN(CC3CCCCC3)CCCN(S(=O)(=O)c3ccc(N(C)C)cc3)C[C@H](C)C2)CC1: 21.4 nM
CC(C)N1CCCN(S(=O)(=O)c2ccc(N(C)C)cc2)C[C@H](C)CN(S(=O)(=O)N2CCc3cc(Cl)ccc3C2)CCC1: 863 nM
COc1cc(F)ccc1N1CCN(S(=O)(=O)N2CCCN(CC3CCCCC3)CCCN(S(=O)(=O)c3ccc(N(C)C)cc3)CC3(CC3)C2)CC1: 81.8 nM
COc1cc(F)cc(N2CCN(S(=O)(=O)N3CCCN(CC4CCCCC4)CCCN(S(=O)(=O)c4ccc(N(C)C)cc4)C[C@H](C)C3)C[C@@H]2C)c1: 402 nM
C[C@H]1CN(S(=O)(=O)Cc2ccccc2)CCCN(CC2CCCCC2)CCCN(S(=O)(=O)N2CCc3cc(Cl)ccc3C2)C1: > 25000 nM
C[C@@H]1CN(CC2CCCCC2)C[C@@H](C)CN(S(=O)(=O)N2CCc3cc(Cl)ccc3C2)C[C@@H](C)CN(S(=O)(=O)c2ccc(N(C)C)cc2)C1: 974 nM

# lookup: IC50 of `C[C@H]1CN(S(=O)(=O)c2ccc(N(C)C)cc2)CCCN(CC2CCC(F)(F)CC2)CCCN(S(=O)(=O)N2CCc3cc(Cl)ccc3C2)C1`
85.4 nM

# lookup: IC50 of `COc1cc(F)cc(N2CCN(S(=O)(=O)N3CCCN(CC4CCCCC4)CCCN(S(=O)(=O)c4ccc(N(C)C)cc4)CC4(CC4)C3)C[C@H]2C)c1`
668 nM

# lookup: IC50 of `C[C@H]1CN(S(=O)(=O)c2ccc(N(C)C)cc2)CCCN(CCC2CCCCC2)CCCN(S(=O)(=O)N2CCc3cc(Cl)ccc3C2)C1`
27.3 nM

Source of measurements: patent US11578055B2
